Please provide measured pIC50 for the entries that follow.
target-system: over expressed HSD17β9 in HEK293S cells (Homo sapiens (Human), UniProt Q92781)
Sequence (Q92781 whole entry): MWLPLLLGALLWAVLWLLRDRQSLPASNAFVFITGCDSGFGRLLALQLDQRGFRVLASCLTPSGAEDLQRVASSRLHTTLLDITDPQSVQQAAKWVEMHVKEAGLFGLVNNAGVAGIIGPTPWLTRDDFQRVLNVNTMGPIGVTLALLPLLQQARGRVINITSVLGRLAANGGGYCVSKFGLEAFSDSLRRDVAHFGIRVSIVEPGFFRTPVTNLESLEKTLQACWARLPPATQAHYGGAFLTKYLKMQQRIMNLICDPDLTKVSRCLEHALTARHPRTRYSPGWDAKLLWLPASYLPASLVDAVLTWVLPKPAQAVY
measurement-protocol: In Vitro 17bHSD9 Cell Assay
Format: cell-based
experimental-context: HEK293S cells over expressing HSD17β9; retinol to retinal conversion, 18 h, LC-MS/MS; read-out: 17bHSD9 Cell assay IC50
pIC50 field: float, defined as -log10 of concentration (mol/L).

Memo: O=C(c1noc(-c2cc(F)c(F)c(O)c2F)n1)N1CC[C@H](Oc2ccccc2)C1 , reported pIC50: 4.39

Record summary for N#Cc1ccc2c(c1)CCN(C(=O)c1noc(-c3cc(F)c(F)c(O)c3F)n1)C2 : reported pIC50 = 4.52

Given item O=C(c1noc(-c2cc(F)c(F)c(O)c2F)n1)N1CC[C@@H](c2ccc(Cl)cc2)C1 , the value recorded as its pIC50 is 4.60

Entry CC(C)C1COCCN1C(=O)c1noc(-c2cc(F)c(F)c(O)c2F)n1 (stereo not drawn) — recorded pIC50 = 5.38

The value of pIC50 measured for the molecule O=C(c1noc(-c2cc(F)c(F)c(O)c2F)n1)N1CCN(CCOc2ccc(Br)cn2)CC1 turned out to be 4.66

* * *

reported-property: IC50 (nM)
Number only, in nM; omit the unit.

IC50 on CYP2C9 (Homo sapiens (Human)) for COc1cccc(N2CCN(C(=O)c3noc(-c4cc(F)c(F)c(O)c4F)c3C#N)CC2)c1 is 800

Record for N#CC1(c2ccccc2)CCN(C(=O)c2noc(-c3cc(F)c(F)c(O)c3F)n2)CC1 under target or system CYP2C9 (Homo sapiens (Human)): IC50 reported as 3300

IC50 of O=C(c1noc(-c2cc(F)c(F)c(O)c2F)n1)N1CCN(CCCOc2ccc(F)cc2)CC1 , assay on CYP2C9 (Homo sapiens (Human)), is 3700

The measured IC50 that Cn1nc(C2CC2)c2c1CCN(C(=O)c1noc(-c3cc(F)c(F)c(O)c3F)c1C#N)C2 showed for CYP2C9 (Homo sapiens (Human)) is 400

Query O=C(c1noc(-c2cc(F)c(F)c(O)c2F)n1)N1CCN(CCOc2ccc(Br)cn2)CC1 on CYP2C9 (Homo sapiens (Human)); IC50 returned: 2400

The value of IC50 recorded for N#Cc1c(C(=O)N2CCN(c3ccc4nnc(C(F)(F)F)n4n3)CC2)noc1-c1cc(F)c(F)c(O)c1F when tested on CYP2C9 (Homo sapiens (Human)) reads 200

Record for C[C@@H]1CC[C@H](C)N1C(=O)c1noc(-c2cc(F)c(F)c(O)c2F)n1 under target or system CYP2C9 (Homo sapiens (Human)): IC50 reported as 14800

# value of IC50, CYP2C9 (Homo sapiens (Human)), item N#Cc1cccc(C2CN(C(=O)c3noc(-c4cc(F)c(F)c(O)c4F)n3)C2)c1 = 3400

* * *

target-system: recombinant 17bHSD13 (N2-K300) (Homo sapiens (Human))
Sequence (Q7Z5P4 2-300): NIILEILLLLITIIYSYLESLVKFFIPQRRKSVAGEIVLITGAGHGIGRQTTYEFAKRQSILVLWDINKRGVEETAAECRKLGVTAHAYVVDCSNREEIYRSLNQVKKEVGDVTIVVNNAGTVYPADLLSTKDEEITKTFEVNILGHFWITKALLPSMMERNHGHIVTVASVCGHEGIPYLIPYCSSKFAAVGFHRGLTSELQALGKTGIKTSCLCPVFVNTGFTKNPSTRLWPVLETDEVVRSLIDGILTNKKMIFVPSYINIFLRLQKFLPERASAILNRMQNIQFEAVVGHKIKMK
measurement-protocol: In Vitro 17bHSD13 Enzyme Assay
experimental-context: 80 nM 17bHSD13, 0.5 mM NAD, 20 μM Estradiol, 2.5 h; estradiol to estrone by LC-MS/MS
reported-property: pIC50
Please treat pIC50 as minus the base-10 logarithm of the molar concentration.

// recorded pIC50 for O=C(c1noc(-c2cc(F)c(F)c(O)c2F)n1)N1CCN(CCOc2ccc(Br)cn2)CC1 : 6.88

Item: CN(C(=O)c1noc(-c2ccc(F)c(O)c2)n1)c1nnnn1-c1ccccc1 | pIC50: 7.39

Looking up N#Cc1c(C(=O)N2CCN(c3nc4ccccc4o3)CC2)noc1-c1cc(F)c(F)c(O)c1F , I found its pIC50 recorded as 6.85

Record O=C(c1noc(-c2cc(F)c(F)c(O)c2F)n1)N1CCO[C@H]2CCC[C@H]21 . Reported pIC50: 6.71

Entry O=C(c1cc(-c2cc(F)c(F)c(O)c2F)on1)N1CC[C@H](c2ccccc2)C1 , pIC50 reported as 7.24

Lab note: N#Cc1cccc2c1CCN(C(=O)c1noc(-c3cc(F)c(F)c(O)c3F)n1)C2 gave pIC50 of 6.73

For this molecule ( C[C@@H]1CC[C@H](C)N1C(=O)c1noc(-c2cc(F)c(F)c(O)c2F)n1 ), measured pIC50 is 6.68

# pIC50 of CN(C(=O)c1cc(-c2ccc(F)c(O)c2)on1)c1ccnn1C1CCCCC1 = 7.08

* * *

target-system: over expressed HSD17β9 in HEK293S cells (Homo sapiens (Human))
measurement-protocol: In Vitro 17bHSD9 Cell Assay
Assay type: cell-based
experimental-context: HEK293S cells over expressing HSD17β9; retinol to retinal conversion, 18 h, LC-MS/MS; read-out: 17bHSD9 Cell assay IC50
pIC50: −log10 of the molar value.
Please go through the items and note down their pIC50.

Entry C[C@@H]1CCN(C(=O)c2noc(-c3cc(F)c(F)c(O)c3F)n2)CCO1 : pIC50 on over expressed HSD17β9 in HEK293S cells (Homo sapiens (Human)) = < 4.30

Considering O=C(c1cc(-c2ccc(F)c(O)c2)no1)N1CCC(c2ccccc2)C1 (stereo not drawn) , its pIC50 with over expressed HSD17β9 in HEK293S cells (Homo sapiens (Human)) was recorded as < 4.30

Noted pIC50 for C[C@@H]1CN(C(=O)c2cc(-c3cc(F)c(F)c(O)c3F)on2)C[C@H](C)O1 , tested on over expressed HSD17β9 in HEK293S cells (Homo sapiens (Human)): < 4.30

Note to self: pIC50 of O=C(c1noc(-c2cc(F)c(F)c(O)c2F)n1)N1CC=C(c2ccccc2)CC1 with over expressed HSD17β9 in HEK293S cells (Homo sapiens (Human)) was 4.80

Observed pIC50, over expressed HSD17β9 in HEK293S cells (Homo sapiens (Human)), N#Cc1c(C(=O)N2Cc3ccc(F)cc3C2)noc1-c1cc(F)c(F)c(O)c1F : 5.21

The compound COc1cccc(N2CCN(C(=O)c3noc(-c4cc(F)c(F)c(O)c4F)c3C#N)CC2)c1 on over expressed HSD17β9 in HEK293S cells (Homo sapiens (Human)): pIC50 was < 4.30

Lab entry: over expressed HSD17β9 in HEK293S cells (Homo sapiens (Human)) assay, compound CC1CN(C(=O)c2noc(-c3cc(F)c(F)c(O)c3F)n2)CC2(CCC2)O1 (racemic) , pIC50 = 4.52

Record CC1(C)CN(C(=O)c2noc(-c3cc(F)c(F)c(O)c3F)n2)CC(C)(C)O1 ; system over expressed HSD17β9 in HEK293S cells (Homo sapiens (Human)); pIC50 = 4.80

Observed pIC50 on over expressed HSD17β9 in HEK293S cells (Homo sapiens (Human)), entry C[C@@H]1CN(C(=O)c2noc(-c3cc(O)c(F)c(F)c3)n2)C[C@H](C)O1 , equals < 4.30

# O=C(c1noc(-c2cc(F)c(F)c(O)c2F)n1)N1CCO[C@@H](CF)C1 with over expressed HSD17β9 in HEK293S cells (Homo sapiens (Human)): pIC50 is < 4.30

The observed pIC50 for COc1cccc(N2CCN(C(=O)c3noc(-c4cc(C(F)(F)F)[nH]c(=O)c4)n3)CC2)c1 when tested with over expressed HSD17β9 in HEK293S cells (Homo sapiens (Human)) stands at < 4.30

For the compound O=C(c1noc(-c2cc(F)c(F)c(O)c2F)n1)N1CCO[C@H]2CCC[C@H]21 , the measured pIC50 on over expressed HSD17β9 in HEK293S cells (Homo sapiens (Human)) was 4.49

Field pIC50 (over expressed HSD17β9 in HEK293S cells (Homo sapiens (Human))), entry C[C@@H]1COC[C@H](C)N1C(=O)c1noc(-c2cc(F)c(F)c(O)c2F)n1 : < 4.30

Field pIC50 (over expressed HSD17β9 in HEK293S cells (Homo sapiens (Human))), entry CC[C@H]1CN(C(=O)c2noc(-c3cc(F)c(F)c(O)c3F)n2)C[C@@H](C)O1 (racemic) : 4.79

Field pIC50 (system: over expressed HSD17β9 in HEK293S cells (Homo sapiens (Human))) for entry COc1ccccc1N1CCN(C(=O)c2noc(-c3cc(F)c(F)c(O)c3F)n2)CC1 = < 4.30

pIC50 value, target or system over expressed HSD17β9 in HEK293S cells (Homo sapiens (Human)), for O=C(c1noc(-c2cc(F)c(F)c(O)c2F)n1)N1CCC2(C1)OCc1ccccc12 (stereo not drawn) : < 4.30

Item N#Cc1ccc2c(c1)CN(C(=O)c1noc(-c3cc(F)c(F)c(O)c3F)n1)C2 ; assay system over expressed HSD17β9 in HEK293S cells (Homo sapiens (Human)); pIC50 reported as < 4.30

Sample O=C(c1noc(-c2cc(F)c(F)c(O)c2F)n1)N1CCOC2(CCC2)C1 , system: over expressed HSD17β9 in HEK293S cells (Homo sapiens (Human)). Its pIC50 is 5.92

Measured on over expressed HSD17β9 in HEK293S cells (Homo sapiens (Human)), CC1CN(C(=O)c2noc(-c3cc(F)c(F)c(O)c3F)n2)CC(C)(C)O1 (stereo not drawn) has a documented pIC50 of < 4.30

Entry C[C@@H]1CN(C(=O)c2noc(-c3cc(F)c(F)c(O)c3F)n2)C[C@H](C)N1 under over expressed HSD17β9 in HEK293S cells (Homo sapiens (Human)) had pIC50 of < 4.30

over expressed HSD17β9 in HEK293S cells (Homo sapiens (Human)) assay, compound C[C@@H]1C[C@H](C)CN(C(=O)c2nc(-c3cc(F)c(F)c(O)c3F)no2)C1 , recorded pIC50 = < 4.30

Sample CN(C(=O)c1cc(-c2ccc(F)c(O)c2)no1)c1ccnn1C1CCCCC1 , system: over expressed HSD17β9 in HEK293S cells (Homo sapiens (Human)). Its pIC50 is < 4.30

Reported pIC50 (over expressed HSD17β9 in HEK293S cells (Homo sapiens (Human))) for entry O=C(c1noc(-c2cc(F)c(F)c(O)c2F)n1)N1CCc2ccccc2C1 is 4.95

Field pIC50 (over expressed HSD17β9 in HEK293S cells (Homo sapiens (Human))), entry O=C(c1noc(-c2cc(F)c(F)c(O)c2F)n1)N1CCC(c2ccccc2)C1 (stereo not drawn) : 4.76

Hey, over expressed HSD17β9 in HEK293S cells (Homo sapiens (Human)) data for N#Cc1cccc(C2CN(C(=O)c3noc(-c4cc(F)c(F)c(O)c4F)n3)CCN2)c1 (stereo not drawn) : pIC50 came out at < 4.30

Record O=C(c1noc(-c2cc(F)c(F)c(O)c2F)n1)N1CCOCC1 / over expressed HSD17β9 in HEK293S cells (Homo sapiens (Human)), pIC50 recorded as < 4.30

Lab note: compound O=C(c1noc(-c2cc(F)c(F)c(O)c2F)n1)N1CCOC2CCCC21 (stereo not drawn) tested on over expressed HSD17β9 in HEK293S cells (Homo sapiens (Human)); recorded pIC50 was 4.30

# value of pIC50, over expressed HSD17β9 in HEK293S cells (Homo sapiens (Human)), item CCCC1CCN(C(=O)c2noc(-c3cc(F)c(F)c(O)c3F)n2)C1 (stereo not drawn) = 4.71

O=C(c1noc(-c2cc(F)c(F)c(O)c2F)n1)N1CCO[C@@H]2CCC[C@H]21 on over expressed HSD17β9 in HEK293S cells (Homo sapiens (Human)) gives pIC50 = 4.80

// compound N#Cc1ccccc1N1CCN(C(=O)c2noc(-c3cc(F)c(F)c(O)c3F)n2)CC1 , assay over expressed HSD17β9 in HEK293S cells (Homo sapiens (Human)), pIC50 value: < 4.30

pIC50 for over expressed HSD17β9 in HEK293S cells (Homo sapiens (Human)) with input C[C@@H]1C[C@H](C)CN(C(=O)c2noc(-c3cc(F)c(F)c(O)c3F)n2)C1 equals 5.00

# O=C(c1noc(-c2cc(F)c(F)c(O)c2F)n1)N1CCN(c2nc3ccccc3o2)CC1 with over expressed HSD17β9 in HEK293S cells (Homo sapiens (Human)): pIC50 is < 4.30

Kindly note: over expressed HSD17β9 in HEK293S cells (Homo sapiens (Human)), N#Cc1c(C(=O)N2CCN(CCCOc3ccc(F)cc3)CC2)noc1-c1cc(F)c(F)c(O)c1F , pIC50 value reported: < 4.30
